Value source: patent US20250171437A1

- system.name: human PAH with the R408W mutation (A375 R408W cells) (Homo sapiens, UniProt P00439, R408W)
- Construct: expressed in transfected cells
- protocol.description: Cell Based Phenylalanine Flux Assay
- condition.description: A375 cells expressing R408W PAH; 24 hrs with compound, then 20 μM sepiapterin and 800 μM 13C9,15N-Phenylalanine for 4 hours; 13C-Tyrosine by LC-MS; average where tested multiple times
Can you tell me AC50 for the items I'm about to list?

# lookup: AC50 of Cc1nc(C(C)O)oc1C(=O)N1CCc2[nH]cnc2C1c1nc2ccc(F)cc2o1 (stereo not shown)
1 to 5 µM

# lookup: AC50 of CCOC(=O)N1CCN(c2ccc3c(C(=O)N4CCc5[nH]cnc5C4c4nc5cc(F)ccc5o4)cnn3c2)CC1 (stereo not shown)
≥ 5 µM

# lookup: AC50 of O=C(c1cn(-c2ccccn2)nc1Cl)N1CCc2[nH]cnc2[C@@H]1c1nc2cc(F)ccc2o1 (single isomer, unassigned)
≥ 5 µM

# lookup: AC50 of O=C(c1cnn2cc(N3CCOCC3)ccc12)N1CCc2[nH]cnc2C1c1nc2cc(F)ccc2o1 (stereo not shown)
≥ 5 µM

# lookup: AC50 of CC(C)(O)c1noc(C(=O)N2CCc3[nH]cnc3C2c2nc3cccc(F)c3o2)n1 (stereo not shown)
1 to 5 µM

# lookup: AC50 of Cc1nc(CN(C)C)oc1C(=O)N1CCc2[nH]cnc2C1c1nc2cc(F)ccc2o1 (stereo not shown)
1 to 5 µM

# lookup: AC50 of O=C1CCCN1CCOc1ccc2c(C(=O)N3CCc4[nH]cnc4C3c3nc4cc(F)ccc4o3)cnn2c1 (stereo not shown)
≥ 5 µM

# lookup: AC50 of Cc1ncoc1C(=O)N1CC2(CC2)c2[nH]cnc2C1c1nc2cc(F)ccc2o1 (stereo not shown)
≥ 5 µM

# lookup: AC50 of O=C(C1CN(c2ccccn2)C1)N1CCc2[nH]cnc2C1c1nc2cc(F)ccc2o1 (stereo not shown)
1 to 5 µM

# lookup: AC50 of CC1(C)CN(C(=O)c2ocnc2C(F)F)C(c2nc3cc(F)ccc3o2)c2nc[nH]c21 (stereo not shown)
≥ 5 µM

# lookup: AC50 of O=C(c1oc(C2CCN2)nc1C(F)F)N1CCc2[nH]cnc2C1c1nc2cc(F)ccc2o1 (stereo not shown)
1 to 5 µM

# lookup: AC50 of COCCCc1ccc2c(C(=O)N3CCc4[nH]cnc4C3c3nc4cc(F)ccc4o3)cnn2c1 (stereo not shown)
1 to 5 µM

# lookup: AC50 of CC1CN(C(=O)c2oc(C(C)(C)O)nc2C(F)F)C(c2nc3cc(F)ccc3o2)c2nc[nH]c21 (stereo not shown)
1 to 5 µM

# lookup: AC50 of Cn1cc(-c2ncc(C(=O)N3CCc4[nH]cnc4C3c3nc4ccc(Br)cc4o3)s2)cn1 (stereo not shown)
1 to 5 µM

# lookup: AC50 of CC(C)(O)c1ncc(C(=O)N2CCc3[nH]cnc3C2c2nc3ccc(F)cc3o2)o1 (stereo not shown)
1 to 5 µM

# lookup: AC50 of Cn1cncc1-c1nnc(C(=O)N2CCc3[nH]cnc3C2c2nc3cc(F)ccc3o2)o1 (stereo not shown)
1 to 5 µM

# lookup: AC50 of Cn1cc(-c2ncc(C(=O)N3CCc4[nH]cnc4C3c3nc4cc(F)ccc4o3)o2)cn1 (stereo not shown)
1 to 5 µM

###

- system.name: human PAH with the R408W mutation (A375 R408W cells) (Homo sapiens, UniProt P00439, R408W)
- Construct: expressed in transfected cells
- Sequence (P00439 1-452 R408W): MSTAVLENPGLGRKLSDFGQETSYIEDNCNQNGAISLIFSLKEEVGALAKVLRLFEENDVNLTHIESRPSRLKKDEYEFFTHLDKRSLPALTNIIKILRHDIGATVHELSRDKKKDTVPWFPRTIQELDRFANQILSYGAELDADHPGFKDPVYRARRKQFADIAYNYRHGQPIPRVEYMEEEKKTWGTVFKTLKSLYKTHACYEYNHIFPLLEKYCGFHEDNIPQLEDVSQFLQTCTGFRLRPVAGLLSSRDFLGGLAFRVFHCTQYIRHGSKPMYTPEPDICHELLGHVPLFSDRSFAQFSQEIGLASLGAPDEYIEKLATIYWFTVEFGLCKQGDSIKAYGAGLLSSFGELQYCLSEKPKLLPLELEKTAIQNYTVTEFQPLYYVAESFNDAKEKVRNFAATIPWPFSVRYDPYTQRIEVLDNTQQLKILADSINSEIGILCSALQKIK
- protocol.description: Cell Based Phenylalanine Flux Assay
- condition.description: A375 R408W cells; 24 hrs with compound, then 20 μM sepiapterin and 800 μM 13C9,15N-Phenylalanine for 4 hours; 13C-Tyrosine by LC-MS; average where tested multiple times
Can you tell me AC50 for the items I'm about to list?

Look up AC50 with human PAH with the R408W mutation (A375 R408W cells) (Homo sapiens, UniProt P00439, R408W) for this compound: `Cc1cc(C(=O)N2CCc3[nH]cnc3[C@H]2c2nc3cccc(C)c3o2)n(C)n1`
≤ 500 nM

Look up AC50 with human PAH with the R408W mutation (A375 R408W cells) (Homo sapiens, UniProt P00439, R408W) for this compound: `Cc1ccc2c(C(=O)N3CCc4[nH]cnc4[C@@H]3c3nc4cccc(F)c4o3)cnn2c1`
1000 to 5000 nM

Look up AC50 with human PAH with the R408W mutation (A375 R408W cells) (Homo sapiens, UniProt P00439, R408W) for this compound: `O=C(c1ocnc1C(F)F)N1CCc2[nH]cnc2[C@@H]1c1nc2cc(Br)cc(F)c2o1`
≤ 500 nM

Look up AC50 with human PAH with the R408W mutation (A375 R408W cells) (Homo sapiens, UniProt P00439, R408W) for this compound: `Cc1ccc2oc([C@@H]3c4nc[nH]c4CCN3C(=O)c3nnc(-c4ccn(C(F)F)n4)o3)nc2c1`
≤ 500 nM

Look up AC50 with human PAH with the R408W mutation (A375 R408W cells) (Homo sapiens, UniProt P00439, R408W) for this compound: `CC(C)(O)c1nc(Cl)c(C(=O)N2CCc3[nH]cnc3[C@@H]2c2nc3c(F)cccc3o2)o1`
1000 to 5000 nM

Look up AC50 with human PAH with the R408W mutation (A375 R408W cells) (Homo sapiens, UniProt P00439, R408W) for this compound: `O=C(c1ocnc1C(F)(F)F)N1CCc2[nH]cnc2[C@@H]1c1nc2cccc(F)c2o1`
≤ 500 nM

Look up AC50 with human PAH with the R408W mutation (A375 R408W cells) (Homo sapiens, UniProt P00439, R408W) for this compound: `O=C(c1cnn2cc(N3CCC(O)CC3)ccc12)N1CCc2[nH]cnc2[C@@H]1c1nc2cc(F)cc(F)c2o1`
≥ 5000 nM

###

Can you tell me AC50 for the items I'm about to list?
- system.name: human PAH with the R408W mutation (A375 R408W cells) (Homo sapiens, UniProt P00439, R408W)
- Construct: expressed in transfected cells
- protocol.description: Cell Based Phenylalanine Flux Assay
- condition.description: A375 R408W cells; 24 hrs with compound, then 20 μM sepiapterin and 800 μM 13C9,15N-Phenylalanine for 4 hours; 13C-Tyrosine by LC-MS; average where tested multiple times

# lookup: AC50 of O=C(c1ocnc1C(F)(F)F)N1CCc2[nH]cnc2[C@@H]1c1nc2c(F)ccc(F)c2o1 [Example 796]
500 to 1000 nM

# lookup: AC50 of COc1cccc2oc([C@H]3c4nc[nH]c4CCN3C(=O)c3nnc(-c4cnn(C)c4)o3)nc12 [Example 625]
1000 to 5000 nM

# lookup: AC50 of Cc1ccc2nc([C@@H]3c4nc[nH]c4CCN3C(=O)c3ocnc3C(F)F)oc2c1 [Example 884]
≤ 500 nM

# lookup: AC50 of Cn1ccc(-c2nnc(C(=O)N3CCc4[nH]cnc4[C@H]3c3nc4ccc(F)cc4o3)o2)n1 [Example 321]
500 to 1000 nM

###

- system.name: human PAH with the R408W mutation (A375 R408W cells) (Homo sapiens, UniProt P00439, R408W)
- Construct: expressed in transfected cells
- protocol.description: Cell Based Phenylalanine Flux Assay
- condition.description: A375 cells expressing R408W PAH; 24 hrs with compound, then 20 μM sepiapterin and 800 μM 13C9,15N-Phenylalanine for 4 hours; 13C-Tyrosine by LC-MS; average where tested multiple times
measured.metric: AC50

Look up AC50 with human PAH with the R408W mutation (A375 R408W cells) (Homo sapiens, UniProt P00439, R408W) for this molecule: Cn1ncc(C(=O)N2CCc3[nH]cnc3C2c2nc3cc(F)ccc3o2)c1C(F)F (stereo not drawn)
1 to 5 µM

Look up AC50 with human PAH with the R408W mutation (A375 R408W cells) (Homo sapiens, UniProt P00439, R408W) for this molecule: CN1CCN(c2nnc(C(=O)N3CCc4[nH]cnc4C3c3nc4cc(F)ccc4o3)o2)CC1 (stereo not drawn)
≥ 5 µM

Look up AC50 with human PAH with the R408W mutation (A375 R408W cells) (Homo sapiens, UniProt P00439, R408W) for this molecule: Nc1cc(C(=O)N2CCc3[nH]cnc3C2c2nc3cc(F)ccc3o2)n(C(F)F)n1 (stereo not drawn)
≥ 5 µM

Look up AC50 with human PAH with the R408W mutation (A375 R408W cells) (Homo sapiens, UniProt P00439, R408W) for this molecule: COCc1ncc(C(=O)N2CCc3[nH]cnc3C2c2nc3cc(F)ccc3o2)o1 (stereo not drawn)
≥ 5 µM

Look up AC50 with human PAH with the R408W mutation (A375 R408W cells) (Homo sapiens, UniProt P00439, R408W) for this molecule: Cc1nc(-c2cnn(C)c2)sc1C(=O)N1CCc2[nH]cnc2C1c1nc2cc(F)ccc2o1 (stereo not drawn)
1 to 5 µM

Look up AC50 with human PAH with the R408W mutation (A375 R408W cells) (Homo sapiens, UniProt P00439, R408W) for this molecule: O=C(c1cnn2cc(OCCn3cccn3)ccc12)N1CCc2[nH]cnc2C1c1nc2cc(F)ccc2o1 (stereo not drawn)
≥ 5 µM

Look up AC50 with human PAH with the R408W mutation (A375 R408W cells) (Homo sapiens, UniProt P00439, R408W) for this molecule: O=C(c1cnco1)N1CCc2[nH]cnc2C1c1nc2c(F)c(F)ccc2o1 (stereo not drawn)
1 to 5 µM

Look up AC50 with human PAH with the R408W mutation (A375 R408W cells) (Homo sapiens, UniProt P00439, R408W) for this molecule: Cn1cc(C(=O)N2CCc3[nH]cnc3C2c2nc3cc(F)ccc3o2)c(Cl)n1 (stereo not drawn)
1 to 5 µM

Look up AC50 with human PAH with the R408W mutation (A375 R408W cells) (Homo sapiens, UniProt P00439, R408W) for this molecule: Cn1cncc1-c1nnc(C(=O)N2CCc3[nH]cnc3C2c2nc3cccc(C(F)(F)F)c3o2)o1 (stereo not drawn)
1 to 5 µM
